- Test System: Neuropeptide Y receptor type 1 (Homo sapiens, UniProt P25929)
- Sequence (P25929 whole entry): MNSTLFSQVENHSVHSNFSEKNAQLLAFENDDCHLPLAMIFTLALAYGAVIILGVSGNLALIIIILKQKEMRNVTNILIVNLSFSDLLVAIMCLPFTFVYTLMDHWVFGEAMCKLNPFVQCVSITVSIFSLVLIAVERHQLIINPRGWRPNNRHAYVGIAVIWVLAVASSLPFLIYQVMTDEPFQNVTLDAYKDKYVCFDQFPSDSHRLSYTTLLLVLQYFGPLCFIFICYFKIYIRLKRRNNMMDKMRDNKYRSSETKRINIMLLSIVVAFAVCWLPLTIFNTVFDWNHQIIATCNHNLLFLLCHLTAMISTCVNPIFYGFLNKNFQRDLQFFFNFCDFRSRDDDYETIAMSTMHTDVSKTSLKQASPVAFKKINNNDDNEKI
- Experiment Summary: Binding affinity against Neuropeptide Y receptor type 1 using I-PYY as a radioligand in human neuroblastoma SK-N-MC cells
- Format: cell-based
Metric: IC50

Name the reported IC50 value associated with the compound COC(=O)C1=C(C)N=C(C)/C(=C(/O)OC)C1c1cccc(NC(=O)NCCCN2CCC(c3cccc(OC)c3)CC2)c1 (stereo unspecified)
4.2 nM

* * *

- Test System: Neuropeptide Y receptor type 1 (Homo sapiens, UniProt P25929)
- Experiment Summary: Inhibition of I-PYY binding to Nueopeptide Y1 receptor expressed in human neuroblastoma SK-N-MC cells
- Assay type: cell-based
Here the recorded IC50 is given for each entry.
Numbers only; they are read as nM.

1. COC(=O)C1=C(C)N=C(C)/C(=C(/O)OC)C1c1cccc(N/C(=N/CCCN2CCC(c3ccccc3)CC2)NC#N)c1 (configuration not stated)    5.4

// moving on: another record for IC50
Need IC50 of COC(=O)C1=C(C)N=C(C)/C(=C(/O)OC)N1c1cccc(N/C(=N/CCCN2CCC(C(C)(C)C)CC2)NC#N)c1 , thanks.
231

* * *

- Test System: Neuropeptide Y receptor type 1 (Homo sapiens, UniProt P25929)
- Sequence (P25929 whole entry): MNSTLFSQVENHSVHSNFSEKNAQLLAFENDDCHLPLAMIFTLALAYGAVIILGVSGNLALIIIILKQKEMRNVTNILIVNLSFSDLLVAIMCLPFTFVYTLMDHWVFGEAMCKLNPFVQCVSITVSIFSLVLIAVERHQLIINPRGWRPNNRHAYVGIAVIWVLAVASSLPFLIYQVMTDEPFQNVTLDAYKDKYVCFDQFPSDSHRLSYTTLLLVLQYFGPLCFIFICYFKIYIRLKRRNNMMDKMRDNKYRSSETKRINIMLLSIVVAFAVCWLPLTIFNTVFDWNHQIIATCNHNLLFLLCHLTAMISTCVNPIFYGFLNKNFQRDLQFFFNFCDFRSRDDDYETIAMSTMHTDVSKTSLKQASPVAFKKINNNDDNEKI
- Experiment Summary: Inhibition of I-PYY binding to Nueopeptide Y1 receptor expressed in human neuroblastoma SK-N-MC cells
- Assay type: cell-based
compounds and their reported IC50
# value in nM; strip the unit string

1. COC(=O)C1=C(C)N=C(C)/C(=C(/O)OC)N1c1cccc(N/C(=N/CCCN2CCC(c3ccccc3)CC2)NC#N)c1    268
2. COC(=O)C1=C(C)N=C(C)/C(=C(/O)OC)N1c1cccc(NC(=O)NCCCN2CCN(C3CCCCC3)CC2)c1    434
3. COC(=O)C1=C(C)N=C(C)/C(=C(/O)OC)N1c1cccc(NC(=O)NCCCN2CCC(c3cccc(OC)c3)CC2)c1    554

IC50 lookup needed for COC(=O)C1=C(C)N=C(C)/C(=C(/O)OC)C1c1cccc(N/C(S)=N/CCCN2CCN(C3CCCCC3)CC2)c1 (stereo not given) , thanks.
132

The values you see were collected from ChEMBL document CHEMBL1135029.
